Biological target: Leukotriene D4 receptors (Cavia porcellus, UniProt Q2NNR5)
Sequence (Q2NNR5 1-340): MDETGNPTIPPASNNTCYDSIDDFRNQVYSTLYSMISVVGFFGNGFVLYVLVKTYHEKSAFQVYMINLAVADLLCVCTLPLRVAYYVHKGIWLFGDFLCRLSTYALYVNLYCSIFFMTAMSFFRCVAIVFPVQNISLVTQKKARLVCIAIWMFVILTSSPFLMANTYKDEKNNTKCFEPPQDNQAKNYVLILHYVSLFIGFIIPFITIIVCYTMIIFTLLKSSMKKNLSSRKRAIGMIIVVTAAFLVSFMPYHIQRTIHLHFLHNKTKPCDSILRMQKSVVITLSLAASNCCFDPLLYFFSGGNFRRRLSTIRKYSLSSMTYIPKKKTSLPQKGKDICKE
pKd: −log10 of the molar value.
readout: pKd

compound="O=c1cc(-c2nnn[nH]2)oc2cc(OCCCN3CCC(=C(c4ccccc4)c4ccccc4)CC3)ccc12 [Compound (1)]" testvalue=5.63
